Please provide measured EC50 F(ab)/EC50 F(ab)-2 for the entries that follow.
- test-target: T1, human CD11a (human, UniProt P20701 26-1170)
- T1 construct: whole, on cells; On cells it stands paired with CD18 as LFA-1; also called alpha subunit of LFA-1; LFA-1 (CD11a/CD18)
- T1 sequence (P20701 26-1170): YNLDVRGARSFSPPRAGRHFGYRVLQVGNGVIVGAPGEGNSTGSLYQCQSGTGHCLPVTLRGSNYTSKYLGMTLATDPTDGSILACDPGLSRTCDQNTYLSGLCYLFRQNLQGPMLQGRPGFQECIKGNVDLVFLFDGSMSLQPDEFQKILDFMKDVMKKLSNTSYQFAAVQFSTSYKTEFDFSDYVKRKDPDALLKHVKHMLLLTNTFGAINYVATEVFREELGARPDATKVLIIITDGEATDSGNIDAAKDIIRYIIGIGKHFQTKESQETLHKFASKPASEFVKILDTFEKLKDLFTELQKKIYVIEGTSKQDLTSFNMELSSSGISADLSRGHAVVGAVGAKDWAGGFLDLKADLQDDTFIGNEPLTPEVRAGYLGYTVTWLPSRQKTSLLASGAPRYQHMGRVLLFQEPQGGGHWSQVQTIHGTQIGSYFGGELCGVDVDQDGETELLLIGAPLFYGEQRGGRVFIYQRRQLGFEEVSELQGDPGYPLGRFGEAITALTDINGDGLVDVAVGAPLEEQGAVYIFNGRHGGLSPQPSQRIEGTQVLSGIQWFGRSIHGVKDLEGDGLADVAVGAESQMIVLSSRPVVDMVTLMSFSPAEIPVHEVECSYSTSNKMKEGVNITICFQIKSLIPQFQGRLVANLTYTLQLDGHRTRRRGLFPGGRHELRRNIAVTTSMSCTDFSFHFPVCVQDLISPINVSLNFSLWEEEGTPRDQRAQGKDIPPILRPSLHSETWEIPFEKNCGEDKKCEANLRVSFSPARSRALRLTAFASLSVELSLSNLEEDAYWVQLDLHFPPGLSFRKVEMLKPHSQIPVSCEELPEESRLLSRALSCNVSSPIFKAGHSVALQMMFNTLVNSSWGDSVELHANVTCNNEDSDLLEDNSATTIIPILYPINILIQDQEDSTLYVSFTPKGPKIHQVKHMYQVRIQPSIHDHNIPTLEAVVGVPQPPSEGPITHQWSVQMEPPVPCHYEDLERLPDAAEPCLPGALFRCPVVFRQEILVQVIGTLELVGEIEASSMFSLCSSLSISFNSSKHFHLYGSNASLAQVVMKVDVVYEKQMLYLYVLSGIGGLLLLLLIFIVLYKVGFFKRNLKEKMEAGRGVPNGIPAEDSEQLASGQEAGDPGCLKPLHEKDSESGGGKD
- assay-explanation: FACScan, Jurkat cells
Give bare numbers, in ratio.

1) humanized MHM24 IgG1 (HuIgG1) (antibody, V domains shown, F(ab)-8 VL and VH fused to human constant light and IgG1 heavy chains; also called HulgG1; huMHM24) VH: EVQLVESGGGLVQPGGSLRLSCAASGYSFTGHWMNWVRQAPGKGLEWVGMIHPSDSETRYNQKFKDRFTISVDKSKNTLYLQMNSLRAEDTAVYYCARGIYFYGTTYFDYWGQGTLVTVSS VL: DIQMTQSPSSLSASVGDRVTITCRASKTISKYLAWYQQKPGKAPKLLIYSGSTLQSGVPSRFSGSGSGTDFTLTISSLQPEDFATYYCQQHNEYPLTFGQGTKVEIKR | 0.004
2) humanized MHM24 F(ab)-6 (Fab, V domains shown) VH: EVQLVESGGGLVQPGGSLRLSCAASGFSFTGHWMNWVRQAPGKGLEWVGMIHPSDSETRYNQKFKDRFTISVDKSSSTLYLQMNSLRAEDTAVYYCARGIYFYGTTYFDYWGQGTLVTVSS VL: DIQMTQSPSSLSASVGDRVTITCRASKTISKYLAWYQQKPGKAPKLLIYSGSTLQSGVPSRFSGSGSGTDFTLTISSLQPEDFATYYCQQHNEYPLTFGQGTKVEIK | 0.012

[in] # input binder: humanized MHM24 F(ab)-2 (Fab, V domains shown, F(ab) from E. coli) VH: EVQLVESGGGLVQPGGSLRLSCAASGFSFTGHWMNWVRQAPGKGLEWVGMIHPSDSETRYNQKFKDRFTISVDNSKNTLYLQMNSLRAEDTAVYYCARGIYFYGTTYFDYWGQGTLVTVSS VL: DIQMTQSPSSLSASVGDRVTITCRASKTISKYLAWYQQKPGKAPKLLIYSGSSLESGVPSRFSGSGSGTDFTLTISSLQPEDFATYYCQQHNEYPLTFGQGTKVEIK ; wanted: its EC50 F(ab)/EC50 F(ab)-2
[out] 1
